Entries and their measured IC50 follow.
Target: Lp-PLA2 enzyme in human plasma (Homo sapiens, UniProt Q13093)
Construct: from tissue; host or cells: mixed (pooled) human plasma
Sequence (Q13093 22-441): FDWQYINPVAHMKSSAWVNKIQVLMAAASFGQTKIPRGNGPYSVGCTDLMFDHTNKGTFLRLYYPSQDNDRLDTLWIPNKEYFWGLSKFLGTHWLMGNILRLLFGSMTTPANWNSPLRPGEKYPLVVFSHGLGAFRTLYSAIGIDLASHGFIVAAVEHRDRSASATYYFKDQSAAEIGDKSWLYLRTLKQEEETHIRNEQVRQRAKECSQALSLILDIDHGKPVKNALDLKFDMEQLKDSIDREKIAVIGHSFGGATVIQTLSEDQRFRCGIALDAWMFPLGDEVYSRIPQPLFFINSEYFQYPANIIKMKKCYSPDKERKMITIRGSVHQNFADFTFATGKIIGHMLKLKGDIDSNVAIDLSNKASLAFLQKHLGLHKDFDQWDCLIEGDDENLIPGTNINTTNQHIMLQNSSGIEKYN
Assay: Human plasma Lp-PLA2 assay (Thio-PAF assay)
Type: biochemical
Settings: mixed human plasma; 2-thio-PAF substrate, CPM; 30-min pre-incubation; fluorescence ex 380/em 485; read-out: Thio-PAF (pIC50) (converted)
Quick reminder: number only, in µM, skip the unit.

[
  {
    "Molecule": "O=c1nc(OCc2cc(F)c(F)cc2F)cc2n1C[C@@H]1CN2CCO1 [Compound 34]",
    "Unit Label": "µM",
    "IC50": 0.501
  }
]

Please supply the value of reported IC50 for the item O=c1nc(OCc2cc(F)c(Oc3ccc(C(F)(F)F)cc3)c(F)c2)cc2n1CC1CCCN2C1 (stereo not shown) [Compound 13] 0.00794

Output IC50 of O=c1nc(OCc2cc(F)c(F)cc2F)cc2n1CC1CCCN2C1 (stereo not shown) [Compound 3] 0.316

* * *

Molecular target: recombinant human Lp-PLA2 enzyme (Homo sapiens, UniProt Q13093)
Sequence (Q13093 22-441): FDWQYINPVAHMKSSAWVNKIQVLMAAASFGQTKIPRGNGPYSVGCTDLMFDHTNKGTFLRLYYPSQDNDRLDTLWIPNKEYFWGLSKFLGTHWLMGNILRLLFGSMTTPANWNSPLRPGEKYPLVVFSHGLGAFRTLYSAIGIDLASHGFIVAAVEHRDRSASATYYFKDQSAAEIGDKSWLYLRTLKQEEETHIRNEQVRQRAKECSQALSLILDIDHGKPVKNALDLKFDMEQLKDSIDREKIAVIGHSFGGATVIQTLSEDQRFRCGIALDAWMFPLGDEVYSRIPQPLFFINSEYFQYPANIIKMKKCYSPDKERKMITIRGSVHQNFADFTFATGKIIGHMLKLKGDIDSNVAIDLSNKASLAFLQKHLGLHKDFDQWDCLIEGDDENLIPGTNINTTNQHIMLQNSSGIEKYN
Test: Recombinant human Lp-PLA2 (rhLp-PLA2) assay (PED6 assay)
Assay type: biochemical
Details: PED6 substrate; enzyme 4 nM or 110 pM; 30-min pre-incubation; fluorescence ex 480/em 540; read-out: rhLp-PLA2 (pIC50) (converted)
Description: (1) Recombinant Human Lp-PLA2 (rhLp-PLA2) Assay (Also Known as PED6 Assay) PED6 is a fluorescently labeled phospholipid, which could be purchased directly from Invitogene or Molecular Probes. PED6 has a fluorescence quenching […] and a Bodipy fluorescein (FL) group at the sn2 position. Once cleaved by an Lp-PLA2 enzyme, it will release the FL group, resulting in enhanced fluorescence. […] The plate was centrifuged at 500 rpm for 10 seconds.
Measurement Label: IC50 (pM)
Number in pM, nothing else.

[
  {
    "Compound": "O=c1nc(OCc2cc(F)c(F)cc2F)cc2n1C[C@H]1CCCN2C1 [Compound 28]",
    "Study Target": "recombinant human Lp-PLA2 enzyme (Homo sapiens, UniProt Q13093)",
    "IC50 (pM)": 39800
  },
  {
    "Compound": "Cc1ncc(Oc2c(F)cc(COc3cc4n(c(=O)n3)CC3CCCN4C3)cc2F)cn1 (stereo not shown) [Compound 8]",
    "Study Target": "recombinant human Lp-PLA2 enzyme (Homo sapiens, UniProt Q13093)",
    "IC50 (pM)": 316
  },
  {
    "Compound": "O=c1nc(OCc2cc(F)c(Oc3ccc(C(F)(F)F)c(Cl)c3)c(F)c2)cc2n1CC1CCCN2C1 (stereo not shown) [Compound 16]",
    "Study Target": "recombinant human Lp-PLA2 enzyme (Homo sapiens, UniProt Q13093)",
    "IC50 (pM)": 79.4
  },
  {
    "Compound": "O=c1nc(OCc2cc(F)cc(F)c2)cc2n1CC1CCCN2C1 (stereo not shown) [Compound 4]",
    "Study Target": "recombinant human Lp-PLA2 enzyme (Homo sapiens, UniProt Q13093)",
    "IC50 (pM)": 3160
  },
  {
    "Compound": "O=c1nc(OCc2cc(F)c(F)cc2F)cc2n1C[C@@H]1CN2CCO1 [Compound 34]",
    "Study Target": "recombinant human Lp-PLA2 enzyme (Homo sapiens, UniProt Q13093)",
    "IC50 (pM)": 63100
  },
  {
    "Compound": "Cc1ccc(Oc2c(F)cc(COc3cc4n(c(=O)n3)C[C@@H]3CCCN4C3)cc2F)cn1 [Compound 24]",
    "Study Target": "recombinant human Lp-PLA2 enzyme (Homo sapiens, UniProt Q13093)",
    "IC50 (pM)": 100
  },
  {
    "Compound": "O=c1nc(OCc2cc(F)c(Oc3cccc(C(F)(F)F)c3)c(F)c2)cc2n1CC1CCCN2C1 (stereo not shown) [Compound 10]",
    "Study Target": "recombinant human Lp-PLA2 enzyme (Homo sapiens, UniProt Q13093)",
    "IC50 (pM)": 126
  },
  {
    "Compound": "O=c1nc(OCc2cc(F)c(Oc3cccc(C(F)(F)F)c3)c(F)c2)cc2n1C[C@@H]1CCCN2C1 [Compound 26]",
    "Study Target": "recombinant human Lp-PLA2 enzyme (Homo sapiens, UniProt Q13093)",
    "IC50 (pM)": 39.8
  }
]

Check the records and state IC50 for O=c1nc(OCc2cc(F)c(Oc3ccnc(C(F)(F)F)c3)c(F)c2)cc2n1CC1CCCN2C1 (stereo not shown) [Compound 5] 31.6

Using the record for Cc1ccc(Oc2c(F)cc(COc3cc4n(c(=O)n3)C[C@H]3CCCN4C3)cc2F)cn1 [Compound 18] , state its measured IC50. 79.4

Find the measured IC50 of Cc1cc(Oc2c(F)cc(COc3cc4n(c(=O)n3)CC3CCCN4C3)cc2F)ccc1Cl (stereo not shown) [Compound 11] and report it. 79.4

Output IC50 of O=c1nc(OCc2cc(F)c(Oc3cnc(C(F)(F)F)nc3)c(F)c2)cc2n1CC1CCCN2C1 (stereo not shown) [Compound 9] 100

# return recorded IC50 for input O=c1nc(OCc2cc(F)c(F)cc2F)cc2n1C[C@@H]1CN2CCO1 [Compound 40] 50100

Give IC50 for Cc1ccc(Oc2c(F)cc(COc3cc4n(c(=O)n3)C[C@@H]3CN4CCO3)cc2F)cn1 [Compound 30] 158

Let me know recorded IC50 for O=c1nc(OCc2cc(F)c(Oc3cccc(C(F)(F)F)c3)c(F)c2)cc2n1C[C@H]1CCCN2C1 [Compound 20] , thanks. 31.6

# return recorded IC50 for input O=c1nc(OCc2cc(F)c(F)cc2F)cc2n1CC1CCCN2C1 (stereo not shown) [Compound 3] 31600

Data provenance: patent US12630551B2
